Attribution: patent US20060293343A1

- Tested on: PDE4
- Construct: The PDE4 enzyme was purified from U937 cells that are the cells derived from lymphoma
- test.description: Inhibitory action of PDE4 enzyme activity (PDE4 purified from U937 cells)
- Format: biochemical
- study.conditions: PDE4 fraction purified from U937 cells; [3H]-cAMP substrate; 30° C., 10 minutes
Documented IC50 across a set of molecules

- compound.structure.string: "CCc1c(C)nc(-c2cccs2)nc1Nc1ccc2cc(C(=O)O)ccc2c1"
  IC50 / nM: 409
- compound.structure.string: "C=CCc1c(CC)nc(-c2ccc(CC)s2)nc1Nc1ccc2cc(C(=O)O)ccc2c1"
  IC50 / nM: 133
- compound.structure.string: "CCc1c(C)nc(-c2ccoc2)nc1Nc1ccc(C(=O)O)cc1"
  IC50 / nM: 3250
- compound.structure.string: "C=CCc1c(C)nc(-c2ccsc2)nc1Nc1ccc(C(=O)O)cc1"
  IC50 / nM: 1170
- compound.structure.string: "C=CCc1c(C)nc(-c2ccoc2)nc1Nc1ccc2cc(C(=O)O)ccc2c1"
  IC50 / nM: 633
- compound.structure.string: "CCCc1c(CC)nc(-c2ccsc2)nc1Nc1ccc(C(=O)O)cc1"
  IC50 / nM: 490
- compound.structure.string: "CCc1c(C)nc(-c2ccc(Br)s2)nc1Nc1ccc(CC(=O)NO)cc1"
  IC50 / nM: 89
- compound.structure.string: "CCc1nc(-c2cc(C)c(C)s2)nc(Nc2ccc3cc(C(=O)O)ccc3c2)c1CC"
  IC50 / nM: 845
- compound.structure.string: "CCc1c(C)nc(-c2ccsc2)nc1Nc1ccc(C(=O)O)cc1"
  IC50 / nM: 1680

* * *

- System: PDE4
- Construct: The PDE4 enzyme was purified from U937 cells that are the cells derived from lymphoma
- test.description: Inhibitory action of PDE4 enzyme activity (PDE4 purified from U937 cells)
- Type: biochemical
- study.conditions: PDE4 fraction purified from U937 cells; [3H]-cAMP substrate; 30° C., 10 minutes
- Experimental: (1) Purification of PDE4 from U937 Cells The PDE4 enzyme was purified from U937 cells that are the cells derived from lymphoma. U937 cells were suspended in buffer solution A (20 mM Tris-HCl(pH 6.5), 1 mM MgCl2, 0.1 mM EGTA, 3 mM 2-mercaptoethanol) containing protease. inhibitor cocktail (manufactured by Sigma Co.), and a soluble fraction was obtained by centrifugation after ultrasonic disintegration (100,000 G, 30 minutes, 4° C.). […]
Documented IC50 across a set of compounds

- compound.structure.string: "CCc1c(C)nc(-c2ccc(SC)s2)nc1Nc1ccc2cc(C(=O)O)ccc2c1"
  study.system: "PDE4"
  display.unit: "nM"
  IC50: 117
- compound.structure.string: "CCc1nc(-c2ccc(OC)s2)nc(Nc2ccc3cc(C(=O)O)ccc3c2)c1CC"
  study.system: "PDE4"
  display.unit: "nM"
  IC50: 90
- compound.structure.string: "C=CCc1c(CC)nc(-c2cc(OC)cs2)nc1Nc1ccc2cc(C(=O)O)ccc2c1"
  study.system: "PDE4"
  display.unit: "nM"
  IC50: 156
- compound.structure.string: "CCc1nc(-c2ccco2)nc(Nc2ccc3cc(C(=O)O)ccc3c2)c1CC"
  study.system: "PDE4"
  display.unit: "nM"
  IC50: 59

* * *

Documented IC50 across a set of compounds
- Tested on: PDE4
- Construct: The PDE4 enzyme was purified from U937 cells that are the cells derived from lymphoma
- test.description: Inhibitory action of PDE4 enzyme activity (PDE4 purified from U937 cells)
- Format: biochemical
- study.conditions: PDE4 fraction purified from U937 cells; [3H]-cAMP substrate; 30° C., 10 minutes

- compound.structure.string: "CCc1c(C)nc(-c2cccs2)nc1Nc1ccc(CC(=O)O)cc1"
  IC50 (nM): 2940
- compound.structure.string: "CCc1nc(-c2cccs2)nc(Nc2ccc3cc(C(=O)O)ccc3c2)c1CC"
  IC50 (nM): 76
- compound.structure.string: "CCc1c(C)nc(-c2cc(Br)cs2)nc1Nc1ccc(CC(=O)NO)cc1"
  IC50 (nM): 70
- compound.structure.string: "C=CCc1c(CC)nc(-c2ccco2)nc1Nc1ccc2cc(C(=O)O)ccc2c1"
  IC50 (nM): 90
- compound.structure.string: "CCc1c(C)nc(-c2ccsc2)nc1Nc1ccc2cc(C(=O)O)ccc2c1"
  IC50 (nM): 191
- compound.structure.string: "C=CCc1c(CC)nc(-c2ccc(C)s2)nc1Nc1ccc2cc(C(=O)O)ccc2c1"
  IC50 (nM): 192
- compound.structure.string: "CCc1c(C)nc(-c2ccoc2)nc1Nc1ccc2cc(C(=O)O)ccc2c1"
  IC50 (nM): 312
- compound.structure.string: "CCc1ccc(-c2nc(CC)c(CC)c(Nc3ccc4cc(C(=O)O)ccc4c3)n2)s1"
  IC50 (nM): 105
- compound.structure.string: "CCc1c(C)nc(-c2cccs2)nc1Nc1ccc(C(=O)O)cc1"
  IC50 (nM): 1390
- compound.structure.string: "CCc1nc(-c2ccsc2)nc(Nc2ccc3cc(C(=O)O)ccc3c2)c1CC"
  IC50 (nM): 41
- compound.structure.string: "C=CCc1c(C)nc(-c2cccs2)nc1Nc1ccc2cc(C(=O)O)ccc2c1"
  IC50 (nM): 356
- compound.structure.string: "C=CCc1c(CC)nc(-c2ccoc2)nc1Nc1ccc2cc(C(=O)O)ccc2c1"
  IC50 (nM): 116
- compound.structure.string: "C=CCc1c(CC)nc(-c2ccsc2)nc1Nc1ccc2cc(C(=O)O)ccc2c1"
  IC50 (nM): 9

* * *

- Tested on: TNF-α production induced by LPS
- test.description: Inhibitory action of TNF-α production (in vivo) induced by LPS using mouse
- study.conditions: C3H/He mouse; orally administered 60 minutes before LPS 10 μg intraperitoneally; plasma TNF-α 90 minutes after LPS; read-out: ED50 (mg/kg), suppression action of TNF-α production
Please use label 1 for ED50 under 20 mg/kg and label 0 for everything else, ties included.

- compound.structure.string: "CCc1c(C)nc(-c2ccc(F)s2)nc1Nc1ccc(CC(=O)O)cc1"
  label.value: "label 1"
- compound.structure.string: "CCc1nc(-c2ccsc2)nc(Nc2ccc(C(=O)O)cc2)c1CC"
  label.value: "label 0"
- compound.structure.string: "CCc1nc(-c2ccc(SC)s2)nc(Nc2ccc(CC(=O)O)cc2)c1CC"
  label.value: "label 0"
- compound.structure.string: "CCc1nc(-c2ccsc2)nc(Nc2ccc(CC(=O)O)cc2)c1CC"
  label.value: "label 1"
- compound.structure.string: "CCCc1c(CC)nc(-c2ccsc2)nc1Nc1ccc(C(=O)O)cc1"
  label.value: "label 1"
- compound.structure.string: "C=CCc1c(C)nc(-c2ccc(Br)s2)nc1Nc1ccc(CC(=O)O)cc1"
  label.value: "label 0"
- compound.structure.string: "C=CCc1c(C)nc(-c2ccsc2)nc1Nc1ccc(C(=O)O)cc1"
  label.value: "label 0"
- compound.structure.string: "CCc1c(C)nc(-c2cccs2)nc1Nc1ccc(CC(=O)NO)cc1"
  label.value: "label 1"
- compound.structure.string: "CCc1c(C)nc(-c2cccs2)nc1Nc1ccc(CC(=O)O)cc1F"
  label.value: "label 0"

* * *

- System: TNF-α production induced by LPS
- test.description: Inhibitory action of TNF-α production (in vivo) induced by LPS using mouse
- study.conditions: C3H/He mouse; orally administered 60 minutes before LPS 10 μg intraperitoneally; plasma TNF-α 90 minutes after LPS; read-out: ED50 (mg/kg), suppression action of TNF-α production
- Method: C3H/He mouse (manufactured by Japan SLC Co., male) was used as a test animal. A desired concentration of the test sample was suspended in 0.5% methyl cellulose solution. The weight of the mouse was measured, and the test compound solution was orally administered at a dosage of 10 mL/kg while only 0.5% methyl cellulose was administered to the reference group. […] The content of TNF-α in the plasma was measured according to the protocol attached to TNF-α ELISA kit (manufactured by R & D System Co.). […]
Please use TRUE for ED50 under 20 mg/kg and FALSE for everything else, ties included.

- compound.structure.string: "CCc1c(C)nc(-c2cc(C)c(I)s2)nc1Nc1ccc(CC(=O)O)cc1"
  label.value: "FALSE"
- compound.structure.string: "CCc1nc(-c2ccsc2)nc(Nc2ccc3cc(C(=O)O)ccc3c2)c1CC"
  label.value: "TRUE"
- compound.structure.string: "CCc1c(C)nc(-c2ccc(Cl)s2)nc1Nc1ccc(CC(=O)O)cc1"
  label.value: "TRUE"
- compound.structure.string: "CCc1nc(-c2cccs2)nc(Nc2ccc(CC(=O)O)cc2)c1CC"
  label.value: "TRUE"
- compound.structure.string: "C=CCc1c(CC)nc(-c2ccsc2)nc1Nc1ccc2cc(C(=O)O)ccc2c1"
  label.value: "TRUE"
- compound.structure.string: "CCc1nc(-c2cc(C)c(I)s2)nc(Nc2ccc(CC(=O)O)cc2)c1CC"
  label.value: "TRUE"
- compound.structure.string: "CCc1nc(-c2ccc(Cl)s2)nc(Nc2ccc(CC(=O)O)cc2)c1CC"
  label.value: "TRUE"
- compound.structure.string: "CCc1c(C)nc(-c2ccc(F)s2)nc1Nc1ccc(CC(=O)O)cc1F"
  label.value: "TRUE"
- compound.structure.string: "CCc1nc(-c2ccc(C)s2)nc(Nc2ccc3cc(C(=O)O)ccc3c2)c1CC"
  label.value: "TRUE"
- compound.structure.string: "CCc1nc(-c2cccs2)nc(Nc2ccc(C(=O)O)cc2)c1CC"
  label.value: "FALSE"
- compound.structure.string: "C=CCc1c(C)nc(-c2cc(C)c(Br)s2)nc1Nc1ccc(CC(=O)O)cc1"
  label.value: "FALSE"
- compound.structure.string: "C=CCc1c(CC)nc(-c2ccoc2)nc1Nc1ccc(C(=O)O)cc1"
  label.value: "FALSE"
- compound.structure.string: "CCc1nc(-c2ccc(C)s2)nc(Nc2ccc(CC(=O)O)cc2)c1CC"
  label.value: "FALSE"
- compound.structure.string: "CCc1c(C)nc(-c2ccsc2)nc1Nc1ccc(C(=O)O)cc1"
  label.value: "FALSE"
- compound.structure.string: "CCc1nc(-c2ccoc2)nc(Nc2ccc(C(=O)O)cc2)c1CC"
  label.value: "TRUE"
- compound.structure.string: "CCc1c(C)nc(-c2ccc(C)s2)nc1Nc1ccc(CC(=O)O)cc1"
  label.value: "FALSE"
- compound.structure.string: "CCc1nc(-c2ccc(Br)s2)nc(Nc2ccc(CC(=O)O)cc2)c1CC"
  label.value: "FALSE"
- compound.structure.string: "CCc1nc(-c2cc(C)c(Br)s2)nc(Nc2ccc(CC(=O)O)cc2)c1CC"
  label.value: "FALSE"
- compound.structure.string: "CCc1c(C)nc(-c2ccc(I)s2)nc1Nc1ccc(CC(=O)O)cc1F"
  label.value: "FALSE"
- compound.structure.string: "CCc1c(C)nc(-c2ccc(Br)s2)nc1Nc1ccc(CC(=O)O)cc1"
  label.value: "TRUE"
- compound.structure.string: "Cc1nc(-c2ccc(Cl)s2)nc(Nc2ccc(CC(=O)O)cc2)c1CO"
  label.value: "FALSE"
- compound.structure.string: "CCc1nc(-c2ccc(Br)s2)nc(Nc2ccc(C(=O)O)cc2)c1CC"
  label.value: "FALSE"
- compound.structure.string: "C=CCc1c(C)nc(-c2ccc(Cl)s2)nc1Nc1ccc(CC(=O)O)cc1"
  label.value: "FALSE"
